Reference for the values: ChEMBL document CHEMBL1201862

biological target: Microphthalmia-associated transcription factor (Homo sapiens, UniProt O75030); assay: TRPM1 promoter luciferase signal decrease, dose response, MITF inhibitor project, cell-based, SK-MEL-5, cherry-picked, set 3 (AID 493073); assay type: functional
Sequence (O75030 whole entry): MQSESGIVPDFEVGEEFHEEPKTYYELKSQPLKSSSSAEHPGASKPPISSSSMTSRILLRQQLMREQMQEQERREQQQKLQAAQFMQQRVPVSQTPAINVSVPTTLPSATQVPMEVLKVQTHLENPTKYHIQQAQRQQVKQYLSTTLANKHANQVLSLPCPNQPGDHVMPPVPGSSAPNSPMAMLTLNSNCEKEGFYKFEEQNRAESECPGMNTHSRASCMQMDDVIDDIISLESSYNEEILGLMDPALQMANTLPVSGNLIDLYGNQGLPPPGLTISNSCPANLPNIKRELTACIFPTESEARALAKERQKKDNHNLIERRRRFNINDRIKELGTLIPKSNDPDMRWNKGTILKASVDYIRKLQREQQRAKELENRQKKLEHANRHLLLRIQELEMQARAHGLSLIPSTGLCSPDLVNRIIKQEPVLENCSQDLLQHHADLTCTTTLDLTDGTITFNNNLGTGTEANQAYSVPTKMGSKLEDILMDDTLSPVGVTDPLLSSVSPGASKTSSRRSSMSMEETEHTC
Calls of active or inactive are those of the source.
Parameter measured: AC50

Batch lookup, AC50 per entry.
1. COc1ccc(S(=O)(=O)N2CCCCC2)cc1NC(=O)c1ccc([N+](=O)[O-])o1
2. N#Cc1cc2c(nc1SC1CC(=O)N(c3ccccc3)C1=O)CCC2 (stereo not given)
3. Nc1ccc(-c2nc3ccc(C(=O)O)cc3s2)cc1

result:
1: 9.14 µM (active); 2: 1.78 µM (active); 3: 0.866 µM (active)

Batch lookup, AC50 per entry.
1. Cc1c(C#N)c(NC(=O)CCl)n(Cc2cccs2)c1C
2. CCNC1=C(Cl)C(=O)c2ccccc2C1=O

result:
1: 7.07 µM (active); 2: 3.84 µM (active)

====

biological target: UniProt P08684; settings: Potency
Sequence (P08684 whole entry): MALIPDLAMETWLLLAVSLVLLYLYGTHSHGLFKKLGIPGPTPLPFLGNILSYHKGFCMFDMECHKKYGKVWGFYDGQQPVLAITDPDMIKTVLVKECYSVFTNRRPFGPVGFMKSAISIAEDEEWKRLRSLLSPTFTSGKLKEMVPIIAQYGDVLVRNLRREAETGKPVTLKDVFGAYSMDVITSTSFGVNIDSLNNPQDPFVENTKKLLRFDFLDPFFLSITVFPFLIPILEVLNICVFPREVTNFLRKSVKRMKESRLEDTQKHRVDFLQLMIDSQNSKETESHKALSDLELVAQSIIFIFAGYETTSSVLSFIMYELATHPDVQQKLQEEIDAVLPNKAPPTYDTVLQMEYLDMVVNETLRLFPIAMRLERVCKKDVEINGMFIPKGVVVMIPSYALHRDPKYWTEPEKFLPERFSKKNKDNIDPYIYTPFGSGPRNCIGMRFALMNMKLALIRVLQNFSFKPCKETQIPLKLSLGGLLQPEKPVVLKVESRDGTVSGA
Kindly state AC50 for each of the entries shown.

Record excerpt, results attached:
query: # input molecule: Cc1cc(C2(c3cc(C)c(O)cc3C)OS(=O)(=O)c3ccccc32)c(C)cc1O ; wanted: its AC50
result: 7.94 µM (inconclusive)

query: # input molecule: BrC1C(Br)C(Br)C(Br)C(Br)C1Br (configuration not stated) ; wanted: its AC50
result: 15.8 µM (inconclusive)

query: # input molecule: COc1cc(C=O)c([N+](=O)[O-])cc1OC ; wanted: its AC50
result: 25.1 µM (inconclusive)

query: # input molecule: CCCCCCCC1=Cc2ccccc2C(CC(C)=O)N1C(=O)OC (configuration not stated) ; wanted: its AC50
result: 3.16 µM (inconclusive)

query: # input molecule: COC(c1ccccc1)C(C)C(OC)C(C)C(OC)C(C)C(C)=O (configuration not stated) ; wanted: its AC50
result: 3.98 µM (inconclusive)

query: # input molecule: C=C1CCC(=O)C(C)CCC2C1CC2(C)C (configuration not stated) [DIHYDROCARYOPHYLLEN-5-ONE] ; wanted: its AC50
result: 25.1 µM (inconclusive)

Batch lookup, AC50 per entry.
1. CCC1OC(=O)C(C)[C@@H](O[C@H]2C[C@@](C)(OC)C(O)C(C)O2)C(C)[C@@H](O[C@@H]2OC(C)CC(N(C)C)C2O)[C@@](C)(O)CC(C)C(=O)[C@@H](C)C(O)[C@]1(C)O (some centres not stated)
2. N#Cc1ccc(C23CC4(C2)[C@H](CN(Cc2ccc(C(F)(F)F)cc2)[C@@H]4c2ccccc2)C3c2ccccc2)cc1 (some centres not stated)
3. Cc1nc(/N=N\c2cc(S(=O)(=O)O)c3cc([N+](=O)[O-])cc(S(=O)(=O)O)c3c2)c(COP(=O)(O)O)c(C=O)c1O
4. CCCCCCCCCc1ccc(O)cc1
5. C=C1CC[C@@H]2O[C@@]2(C)CC[C@H]2[C@H]1CC2(C)C
6. COC(=O)c1ccc(C23CC4(C2)[C@H](CN(C)[C@@H]4c2ccccc2)C3c2ccccc2)cc1 (some centres not stated)

result:
1: 31.6 µM (inconclusive); 2: 25.1 µM (inconclusive); 3: 15.8 µM (inconclusive); 4: 31.6 µM (inconclusive); 5: 39.8 µM (inconclusive); 6: 12.6 µM (inconclusive)

====

biological target: Insulin-degrading enzyme (Homo sapiens); assay: activators of recombinant IDE enzyme, dose response, counter-screen for IDE activator project, biochemical, fluorescence polarization (AID 588681)
Sequence (P14735 whole entry): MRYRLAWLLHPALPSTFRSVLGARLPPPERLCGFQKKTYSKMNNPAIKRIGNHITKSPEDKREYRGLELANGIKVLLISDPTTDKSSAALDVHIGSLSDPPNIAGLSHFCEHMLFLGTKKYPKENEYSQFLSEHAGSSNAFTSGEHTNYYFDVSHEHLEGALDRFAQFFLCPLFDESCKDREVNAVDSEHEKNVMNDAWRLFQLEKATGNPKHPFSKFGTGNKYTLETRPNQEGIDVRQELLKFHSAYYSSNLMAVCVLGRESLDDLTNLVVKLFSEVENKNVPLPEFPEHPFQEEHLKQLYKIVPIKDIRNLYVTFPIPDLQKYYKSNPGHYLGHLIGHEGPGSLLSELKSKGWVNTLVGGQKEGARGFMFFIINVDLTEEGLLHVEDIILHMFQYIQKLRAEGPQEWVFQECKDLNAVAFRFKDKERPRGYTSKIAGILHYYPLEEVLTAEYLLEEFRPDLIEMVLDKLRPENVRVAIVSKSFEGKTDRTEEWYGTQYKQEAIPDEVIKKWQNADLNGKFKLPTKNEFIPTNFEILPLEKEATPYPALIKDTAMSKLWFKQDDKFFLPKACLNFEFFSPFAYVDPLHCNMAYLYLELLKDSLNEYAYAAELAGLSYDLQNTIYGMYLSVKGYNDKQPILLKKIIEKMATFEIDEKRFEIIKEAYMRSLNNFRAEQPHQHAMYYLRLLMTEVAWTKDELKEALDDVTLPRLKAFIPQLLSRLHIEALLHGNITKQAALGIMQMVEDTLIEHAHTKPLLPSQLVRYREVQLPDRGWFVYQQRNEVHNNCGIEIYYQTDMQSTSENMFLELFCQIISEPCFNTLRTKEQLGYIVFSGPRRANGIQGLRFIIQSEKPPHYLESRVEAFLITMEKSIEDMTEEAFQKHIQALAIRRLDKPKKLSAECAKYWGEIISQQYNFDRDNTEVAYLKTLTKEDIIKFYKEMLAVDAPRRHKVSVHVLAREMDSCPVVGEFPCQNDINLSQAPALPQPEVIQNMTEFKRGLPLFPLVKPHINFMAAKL
Calls of active or inactive are those of the source.
Kindly state EC50 for each of the entries shown.

Record excerpt, results attached:
query: # input compound: N#CC(C#N)=C1C=C2C=C(N3CCOCC3)CCC2CC1 (centres undefined) ; wanted: its EC50
result: > 54.7 µM (inactive)

query: # input compound: COc1ccc(N=Nc2nc3ccc(Br)cc3n2C)cc1 ; wanted: its EC50
result: > 54.7 µM (inactive)

query: # input compound: CC1=NCCc2c1[nH]c1cc(O)ccc21 ; wanted: its EC50
result: > 54.6 µM (inactive)

Consider the additional compound presented here.
query: # input compound: Nc1ccc2c3[nH]c4cc(N)ccc4cc-3nc2c1 ; wanted: its EC50
result: > 54.7 µM (inactive)

====

target: UniProt P41145; format: functional
Sequence (P41145 whole entry): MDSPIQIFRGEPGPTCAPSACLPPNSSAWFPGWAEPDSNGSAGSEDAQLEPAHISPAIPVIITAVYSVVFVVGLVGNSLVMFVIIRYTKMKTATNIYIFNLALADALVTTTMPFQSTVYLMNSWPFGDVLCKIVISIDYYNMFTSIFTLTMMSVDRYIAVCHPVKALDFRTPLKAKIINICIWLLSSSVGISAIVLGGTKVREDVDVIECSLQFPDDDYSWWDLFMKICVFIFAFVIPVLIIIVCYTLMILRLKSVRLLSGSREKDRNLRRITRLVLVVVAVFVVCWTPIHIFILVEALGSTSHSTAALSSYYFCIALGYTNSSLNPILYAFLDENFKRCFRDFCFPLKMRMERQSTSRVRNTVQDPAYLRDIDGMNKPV
Parameter measured: EC50 (nM)
Numbers only, in nM.

query: # input molecule: Clc1ccc(CSc2nnc(-c3ccccn3)n2Cc2ccco2)c(Cl)c1 ; wanted: its EC50
result: 1250

====

assay: off-target signal loss in HeLa-CEM21 co-culture – HeLa F-luc CTL cells, cherry-picked, counter-screen for HIV-1 Env fusion inhibitor project, dose response (AID 652040); format: functional, cell-based;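 also: potency for signal decrease marking cytotoxic or nonspecific inhibition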
Calls of active or inactive are those of the source.
Kindly state AC50 for each of the entries shown.

Record excerpt, results attached:
query: # input compound: Cc1c(CCOC(=O)CC23CC4CC(CC(C)(C4)C2)C3)sc[n+]1CC(=O)c1ccccc1 ; wanted: its AC50
result: 4.35 µM (active)

query: # input compound: CCn1c(COc2ccc(Cl)cc2)nnc1SCc1nc2ccccc2[nH]1 ; wanted: its AC50
result: 23.5 µM (active)

query: # input compound: CCN(C[C@H]1N[C@@](C)(C(=O)OC)[C@H]2C(=O)N(Cc3ccccc3)C(=O)[C@@H]12)S(=O)(=O)c1ccc(C(C)(C)C)cc1 ; wanted: its AC50
result: 6.31 µM (active)

Consider the additional compound presented here.
query: # input compound: O=C(Nc1cc(Cl)cc(Cl)c1)C1CCC(=O)N1Cc1ccccc1Cl (centres undefined) ; wanted: its AC50
result: 59.2 µM (active)

====

molecular target: Protein skinhead-1 (Caenorhabditis elegans, UniProt P34707); type: functional
Sequence (P34707 whole entry): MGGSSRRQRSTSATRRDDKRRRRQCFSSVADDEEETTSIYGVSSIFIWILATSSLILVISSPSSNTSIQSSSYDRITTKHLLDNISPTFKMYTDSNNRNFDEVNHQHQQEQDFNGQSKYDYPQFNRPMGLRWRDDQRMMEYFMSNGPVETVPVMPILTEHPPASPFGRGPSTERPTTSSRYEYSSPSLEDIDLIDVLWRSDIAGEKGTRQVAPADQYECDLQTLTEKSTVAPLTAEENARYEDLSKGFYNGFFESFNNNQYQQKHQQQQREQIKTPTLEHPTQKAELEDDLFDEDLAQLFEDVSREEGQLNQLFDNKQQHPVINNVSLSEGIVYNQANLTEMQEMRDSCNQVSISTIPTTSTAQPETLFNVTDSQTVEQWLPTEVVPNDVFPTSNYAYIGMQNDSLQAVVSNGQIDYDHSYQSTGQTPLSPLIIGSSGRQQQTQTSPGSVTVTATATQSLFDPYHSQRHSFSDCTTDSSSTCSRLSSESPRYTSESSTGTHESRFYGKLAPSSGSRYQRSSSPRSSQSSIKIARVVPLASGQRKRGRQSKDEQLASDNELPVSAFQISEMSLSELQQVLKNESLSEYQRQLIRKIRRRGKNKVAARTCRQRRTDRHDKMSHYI
Activity calls are given as the source filed them.
Would you mind answering with one of these outcomes? 1 (yes) for active, 0 (no) for inactive

query: How did this test come out for COC(=O)c1ccc(-c2ccc(Cl)cc2)nc1C ?
result: 0 (no)

query: How did this test come out for Clc1ccc2oc(SCc3cccnc3)nc2c1 ?
result: 1 (yes)

query: How did this test come out for O=C(Nc1ccc2nc(-c3ccccc3)oc2c1)c1ccco1 ?
result: 0 (no)

# evaluate next
query: How did this test come out for Cc1nn(C(=O)CCC(=O)NCc2cccc(F)c2)c2ccccc12 ?
result: 0 (no)

====

target: Apoptotic protease-activating factor 1 (Homo sapiens); type: functional
Sequence (O14727 whole entry): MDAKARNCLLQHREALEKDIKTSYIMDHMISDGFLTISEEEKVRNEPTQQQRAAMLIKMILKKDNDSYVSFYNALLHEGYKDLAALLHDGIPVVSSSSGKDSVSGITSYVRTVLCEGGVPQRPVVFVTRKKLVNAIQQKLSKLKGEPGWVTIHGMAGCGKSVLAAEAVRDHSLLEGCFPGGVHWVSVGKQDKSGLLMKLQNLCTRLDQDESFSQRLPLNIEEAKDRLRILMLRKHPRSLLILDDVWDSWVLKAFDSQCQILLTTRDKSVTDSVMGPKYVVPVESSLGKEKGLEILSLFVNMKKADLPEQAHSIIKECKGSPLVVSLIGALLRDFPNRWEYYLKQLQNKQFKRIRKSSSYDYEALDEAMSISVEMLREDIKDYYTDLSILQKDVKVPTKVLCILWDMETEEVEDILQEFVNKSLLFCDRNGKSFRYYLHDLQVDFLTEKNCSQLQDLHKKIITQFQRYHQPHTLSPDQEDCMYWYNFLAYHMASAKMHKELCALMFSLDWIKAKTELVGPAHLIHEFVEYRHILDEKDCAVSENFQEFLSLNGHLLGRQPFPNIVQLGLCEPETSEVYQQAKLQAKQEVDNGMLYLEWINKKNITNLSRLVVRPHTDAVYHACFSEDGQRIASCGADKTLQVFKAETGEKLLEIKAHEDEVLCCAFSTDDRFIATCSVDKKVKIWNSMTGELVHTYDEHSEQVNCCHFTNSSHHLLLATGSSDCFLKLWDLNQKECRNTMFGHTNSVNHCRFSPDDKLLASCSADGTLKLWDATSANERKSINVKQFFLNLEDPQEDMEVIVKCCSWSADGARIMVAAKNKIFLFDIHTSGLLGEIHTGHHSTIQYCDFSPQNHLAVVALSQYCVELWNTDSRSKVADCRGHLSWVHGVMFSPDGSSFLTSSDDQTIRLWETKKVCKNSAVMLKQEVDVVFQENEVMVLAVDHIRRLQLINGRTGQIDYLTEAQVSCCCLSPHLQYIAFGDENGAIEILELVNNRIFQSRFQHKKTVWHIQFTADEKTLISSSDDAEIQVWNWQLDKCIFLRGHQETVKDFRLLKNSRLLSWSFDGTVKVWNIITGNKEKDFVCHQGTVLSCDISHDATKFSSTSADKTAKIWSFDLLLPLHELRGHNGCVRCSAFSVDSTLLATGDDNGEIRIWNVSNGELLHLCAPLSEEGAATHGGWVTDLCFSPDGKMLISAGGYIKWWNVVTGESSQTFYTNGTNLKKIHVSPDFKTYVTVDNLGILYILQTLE
Calls of active or inactive are those of the source.
Parameter measured: IC50

Record excerpt, results attached:
query: # input molecule: COc1cc2c(cc1O)[C@@H]1Cc3ccc(OC)c(O)c3CN1CC2 ; wanted: its IC50
result: 16.3 µM (active)

query: # input molecule: CC(=O)N(C1=C(N2CCOCC2)C(=O)c2ccccc2C1=O)c1ccc(C(=O)O)cc1 ; wanted: its IC50
result: 26.2 µM (active)

query: # input molecule: CC(C)CC[n+]1ccn(C2=C([N-]S(=O)(=O)c3ccccc3)C(=O)c3ccccc3C2=O)c1 ; wanted: its IC50
result: 12.9 µM (active)

Consider the additional molecule presented here.
query: # input molecule: CN(Cc1ccc(Cl)c(Cl)c1)C(=O)c1cccc(S(=O)(=O)N2CCN(Cc3ccccc3)CC2)c1 ; wanted: its IC50
result: 42.7 µM (active)

====

biological target: Zinc finger protein mex-5 (Caenorhabditis elegans); assay: MEX-5/TCR-2 RNA interaction inhibitors, dose response, biochemical, C. elegans, fluorescence polarization (AID 1960)
Sequence (Q9XUB2 whole entry): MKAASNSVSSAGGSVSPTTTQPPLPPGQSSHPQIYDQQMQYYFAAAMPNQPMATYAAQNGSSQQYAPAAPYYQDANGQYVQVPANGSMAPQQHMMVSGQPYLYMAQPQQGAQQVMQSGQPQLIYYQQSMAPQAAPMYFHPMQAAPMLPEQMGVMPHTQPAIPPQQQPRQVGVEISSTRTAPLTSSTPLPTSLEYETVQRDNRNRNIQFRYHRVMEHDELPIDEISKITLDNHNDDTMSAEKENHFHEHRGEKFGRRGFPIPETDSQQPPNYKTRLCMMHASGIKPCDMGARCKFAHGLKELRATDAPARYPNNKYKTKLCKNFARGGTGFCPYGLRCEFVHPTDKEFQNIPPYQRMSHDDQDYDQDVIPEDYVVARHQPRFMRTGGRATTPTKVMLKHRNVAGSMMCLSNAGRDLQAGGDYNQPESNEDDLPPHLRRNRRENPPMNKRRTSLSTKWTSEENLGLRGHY
Active and inactive are the calls of the source.
Kindly state EC50 for each of the entries shown.

query: # input compound: CCN(CC)C(=O)CSc1nnc2nnc3cc(OC)ccc3n12 ; wanted: its EC50
result: 5.43 µM (active)

query: # input compound: CN1CCCc2cc3c(C(F)(F)F)cc(=O)oc3nc21 ; wanted: its EC50
result: 25.7 µM (inconclusive)

Batch lookup, EC50 per entry.
1. N#CC1=C(N)OC2=C(C(=O)CCC2)C12C(=O)N1CCCc3cccc2c31 (configuration not stated)
2. O=C(NNC(=O)c1ccccc1O)c1ccco1
3. Cc1ccc(S(=O)(=O)N2CCOCC2)cc1NC(=O)CN(C)C1CCS(=O)(=O)C1 (configuration not stated)
4. Cc1ccc(N2C(=O)/C(=C/c3ccc(CN(CCC#N)S(C)(=O)=O)o3)C(=O)NC2=S)cc1C
5. COc1cccc(/C=C2\SC(=S)N(CCCC(=O)NC3=NCCS3)C2=O)c1
6. Cc1cccn2c(=O)c3cc(S(=O)(=O)c4ccccc4)c(=N)n(Cc4cccnc4)c3nc12
7. CN1CCc2cc3c(c4c2[C@H]1[C@H](O)c1ccccc1-4)OCO3
8. O=C(CCN1C(=O)C2CC=C(Cl)CC2C1=O)N1CCCCC1 (configuration not stated)

result:
1. > 300 µM (not active)
2. 19.4 µM (active)
3. > 300 µM (not active)
4. 9.89 µM (active)
5. > 300 µM (not active)
6. 18.8 µM (inconclusive)
7. 8.45 µM (inconclusive)
8. 18.1 µM (active)

Batch lookup, EC50 per entry.
1. Cc1sc(/C=C2\C(=O)ON=C2c2ccccc2)cc1Br
2. Cc1[nH][nH]c(=O)c1C(c1ccc(-c2cccc(C(=O)O)c2)o1)c1c(C)[nH][nH]c1=O

result:
1. 7.46 µM (inconclusive)
2. 5.56 µM (active)
